# study-target: CDK2/Cyclin E2 (Homo sapiens, UniProt P24941)
# assay-name: CDK2/CyclinE2 enzymatic activity assay (TR-FRET)
# details: ATP 1 mM final, read-out: CDK2_E1 IC50
pIC50: −log10 of the molar value.
measured-endpoint: pIC50

Worked cases, pIC50 given:
[[record]]
smiles_repr = "O=C1NCc2sc(-c3nc(N[C@H]4CCN(S(=O)(=O)c5cn[nH]c5)C[C@H]4F)ncc3C(F)(F)F)cc21"
recorded_value = "≥ 7.00"

[[record]]
smiles_repr = "CC1(C)NC(=O)c2cc(-c3nc(NC4CCN(S(C)(=O)=O)CC4)ncc3C(F)(F)F)sc21"
recorded_value = "≥ 7.00"

[[record]]
smiles_repr = "CS(=O)(=O)N1CCC(Nc2ncc(C(F)(F)F)c(-c3cc4c(s3)C(=O)NC4)n2)CC1"
recorded_value = "≥ 7.00"


For each listed entry, give its pIC50.
1. C[C@@H]1CN(S(=O)(=O)c2cnn(C)c2)CC[C@@H]1Nc1ncc(C(F)(F)F)c(-c2cc3c(s2)C(C)(C)NC3=O)n1
2. Cc1c(-c2nc(NC3CCN(S(C)(=O)=O)CC3)ncc2F)sc2c1C(=O)NC2
3. CS(=O)(=O)N1CCC(Nc2ncc(C(F)(F)F)c(-c3cc4c(s3)CNC4=O)n2)CC1
4. CS(=O)(=O)N1CC[C@H](Nc2ncc(C(F)(F)F)c(-c3cc4c(s3)CNC4=O)n2)[C@H](F)C1

≥ 7.00
≥ 7.00
≥ 7.00
≥ 7.00

For each listed entry, give its pIC50.
1. C[C@@H]1CN(S(=O)(=O)c2cnn(C)c2)CC[C@@H]1Nc1ncc(C(F)(F)F)c(-c2cc3c(s2)CNC3=O)n1
2. Cc1c(-c2nc(NC3CCN(S(C)(=O)=O)CC3)ncc2F)sc2c1C(=O)NC2(C)C

≥ 7.00
≥ 7.00

====

# Test system: OVCAR3 p-RB
# assay-name: pRB ICW assay in OVCAR3 cells
# Assay type: cell-based
# details: Homo sapiens, OVCAR-3, 2 hours incubation with compound
measured-endpoint: IC50

Worked cases, IC50 given:
[[record]]
compound = "Cn1cc(S(=O)(=O)N2CCC(Nc3ncc(C(F)(F)F)c(-c4cc5c(s4)C(C)(C)NC5=O)n3)CC2)cn1 [Example 11]"
measured_endpoint = "IC50"
recorded_value = "≤ 0.1 µM"

[[record]]
compound = "Cc1c(-c2nc(NC3CCN(S(C)(=O)=O)CC3)ncc2F)sc2c1C(=O)NC2(C)C [Example 3]"
measured_endpoint = "IC50"
recorded_value = "≤ 0.1 µM"


Identify measured IC50 obtained with OVCAR3 p-RB for O=C1NCc2sc(-c3nc(N[C@H]4CCN(S(=O)(=O)c5cn[nH]c5)C[C@H]4F)ncc3C(F)(F)F)cc21 [Example 22] .
≤ 0.1 µM

====

Assign IC50 to each entry below.
# study-target: CDK4/Cyclin D1 (Homo sapiens)
# Sequence (P11802 whole entry): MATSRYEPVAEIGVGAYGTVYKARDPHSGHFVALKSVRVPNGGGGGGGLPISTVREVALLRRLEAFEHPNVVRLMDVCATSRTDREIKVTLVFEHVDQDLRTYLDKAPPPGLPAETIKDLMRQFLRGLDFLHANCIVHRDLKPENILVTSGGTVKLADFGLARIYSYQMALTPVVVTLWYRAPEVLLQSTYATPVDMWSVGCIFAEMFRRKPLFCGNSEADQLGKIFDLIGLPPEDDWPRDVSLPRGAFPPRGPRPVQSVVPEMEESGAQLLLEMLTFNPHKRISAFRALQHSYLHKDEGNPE
# Sequence (P24385 whole entry partner): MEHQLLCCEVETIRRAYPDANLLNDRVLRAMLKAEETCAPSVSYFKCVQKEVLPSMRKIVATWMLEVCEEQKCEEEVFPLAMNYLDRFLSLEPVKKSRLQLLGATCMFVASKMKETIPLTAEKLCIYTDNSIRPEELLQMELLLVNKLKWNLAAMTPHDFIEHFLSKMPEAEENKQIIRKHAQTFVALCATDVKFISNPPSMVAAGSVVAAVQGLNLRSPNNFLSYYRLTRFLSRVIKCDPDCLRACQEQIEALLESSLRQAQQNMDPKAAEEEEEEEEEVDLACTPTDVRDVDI
# assay-name: CDK4/CyclinD1 enzymatic activity assay (TR-FRET)
# details: ATP 2 mM final, read-out: CDK4_D1 IC50

[[record]]
compound = "Cn1cc(S(=O)(=O)N2CCC(Nc3ncc(C(F)(F)F)c(-c4cc5c(s4)C(=O)NC5)n3)CC2)cn1 [Example 23]"
recorded_value = "100 to 500 nM"

[[record]]
compound = "C[C@@H]1CN(S(=O)(=O)c2cn(C)cn2)CC[C@@H]1Nc1ncc(C(F)(F)F)c(-c2cc3c(s2)C(C)(C)NC3=O)n1 [Example 8]"
recorded_value = "≤ 100 nM"

[[record]]
compound = "CS(=O)(=O)N1CCC(Nc2ncc(C(F)(F)F)c(-c3cc4c(s3)CNC4=O)n2)CC1 [Example 17]"
recorded_value = "≤ 100 nM"

[[record]]
compound = "C[C@@H]1CN(S(=O)(=O)c2c[nH]cn2)CC[C@@H]1Nc1ncc(C(F)(F)F)c(-c2cc3c(s2)C(C)(C)NC3=O)n1 [Example 10]"
recorded_value = "≤ 100 nM"

[[record]]
compound = "Cc1c(-c2nc(N[C@H]3CCN(S(C)(=O)=O)C[C@H]3F)ncc2F)sc2c1C(=O)NC2(C)C [Example 2]"
recorded_value = "≤ 100 nM"

[[record]]
compound = "C[C@@H]1CN(S(=O)(=O)c2cn[nH]c2)CC[C@@H]1Nc1ncc(C(F)(F)F)c(-c2cc3c(s2)C(C)(C)NC3=O)n1 [Example 9]"
recorded_value = "≤ 100 nM"


For each listed entry, give its IC50.
1. Cn1cc(S(=O)(=O)N2CC[C@@H](Nc3ncc(C(F)(F)F)c(-c4cc5c(s4)C(C)(C)NC5=O)n3)[C@H](F)C2)cn1 [Example 16]
2. CC1(C)NC(=O)c2cc(-c3nc(NC4CCN(S(C)(=O)=O)CC4)ncc3C(F)(F)F)sc21 [Example 12]
3. C[C@@H]1CN(S(C)(=O)=O)CC[C@@H]1Nc1ncc(C(F)(F)F)c(-c2cc3c(s2)C(C)(C)NC3=O)n1 [Example 6]
4. CS(=O)(=O)N1CCC(Nc2ncc(C(F)(F)F)c(-c3cc4c(s3)C(=O)NC4)n2)CC1 [Example 24]
5. CC1(C)NC(=O)c2cc(-c3nc(N[C@@H]4CCN(S(C)(=O)=O)C[C@H]4F)ncc3C(F)(F)F)sc21 [Example 13]

≤ 100 nM
≤ 100 nM
≤ 100 nM
> 500 nM
≤ 100 nM

Give me measured IC50, please, for this compound: Cn1cc(S(=O)(=O)N2CCC(Nc3ncc(C(F)(F)F)c(-c4cc5c(s4)C(C)(C)NC5=O)n3)CC2)cn1 [Example 11]
≤ 100 nM
